Numbers sourced from PubChem BioAssay (Tox21).

# Test Method Notes: qHTS assay to identify small molecule antagonists of the thyroid receptor (TR) signaling pathway - cell viability counter screen (AID 743064); note: nearly all actives have a fitted effect of over 50% in size; note: potency is the fitted concentration of half-maximal effect
# Measurement Parameters: GH3.TRE-Luc viability, CellTiter-Fluor, 24 h; series mostly up to 70.3 µM
Results filed as inconclusive are left out. Active and inactive are the calls of the source. Calls come from the whole dose curve; as a rule, active = well fitted cell-killing curve with a large enough effect in the repeat runs; inconclusive = weak or mixed curves, or effect the other way; inactive = no such curve, though single readings can be large or run the other way.
Value Type: Potency

>>> result("CN1C(=O)c2ccc([N+](=O)[O-])cc2C1=O")
"inactive"
>>> result("CC(C)(C)NC(=O)[C@@H]1CN(Cc2cccnc2)CCN1C[C@@H](O)C[C@@H](Cc1ccccc1)C(=O)N[C@H]1c2ccccc2C[C@H]1O")
"inactive"
>>> result("OCCOCCN1CCN(C(c2ccccc2)c2ccc(Cl)cc2)CC1 (stereo unspecified)")
"26.9 µM (active)"
>>> result("CCCNC(C)C(=O)Nc1ccccc1C (stereo unspecified)")
"inactive"
>>> result("Nc1cc(S(=O)(=O)O)cc2cc(S(=O)(=O)O)cc(O)c12")
"inactive"

--- query ---
**Query** # get_value(readout='Potency', item= NC(Cc1ccc(Cl)cc1)C(=O)O (stereo unspecified) )
**Result** inactive

* * *

# Test Method Notes: qHTS assay to identify small molecule agonists of H2AX (AID 1224845)
# Measurement Parameters: CHO-K1 phospho-H2AX Ser139 HTRF, 3 h; series mostly up to 154 µM
Results filed as inconclusive are left out. Active and inactive are the calls of the source. Calls come from the whole dose curve; as a rule, active = well fitted activation curve with a large enough effect in the signal ratio in the repeat runs (not every such curve was filed as active); inconclusive = weak or mixed curves; inactive = flat fitted curve, though single readings scatter; the % refers to the signal ratio.
Tick one outcome: active, inactive

Check out these entries, answers already filled in.
>>> category_label("O=C1OC2(c3ccc(O)cc3Oc3cc(O)ccc32)c2ccccc21")
"inactive"
>>> category_label("CCCNC(C)C(=O)Nc1ccccc1C (configuration not stated)")
"inactive"
>>> category_label("CC(=O)OCC1=C(C(=O)O)N2C(=O)[C@@H](NC(=O)Cc3cccs3)[C@H]2SC1")
"inactive"
>>> category_label("CC(=O)CC(C)=O")
"inactive"
>>> category_label("C=C(C)C1CC=C(C)C(OC(C)=O)C1 (configuration not stated)")
"inactive"
>>> category_label("COc1ccc(Cc2cnc(N)nc2N)cc1OC")
"inactive"
>>> category_label("CCc1ccc(C(c2ccc(CC)cc2)C(Cl)Cl)cc1")
"inactive"
>>> category_label("C1COC(NC(C2CC2)C2CC2)=N1")
"inactive"

**Query** # lookup: test call for COC(=O)[C@H]1[C@H]2C[C@@H]3c4[nH]c5cc(OC)ccc5c4CCN3C[C@H]2C[C@@H](OC(=O)c2cc(OC)c(OC)c(OC)c2)[C@@H]1OC
**Result** inactive

**Query** Next entry: Cc1cccc2n[nH]nc12
**Result** inactive

**Query** Now this one: CC[C@]1(O)C[C@@H]2CN(CCc3c([nH]c4ccccc34)[C@@](C(=O)OC)(c3cc4c(cc3OC)N(C)[C@H]3[C@@](O)(C(=O)OC)[C@H](OC(C)=O)[C@]5(CC)C=CCN6CC[C@]43[C@@H]65)C2)C1
**Result** inactive

**Query** Moving on to the next compound: CCn1cc(C(=O)O)c(=O)c2cc(F)c(N3CCNC(C)C3)c(F)c21 (configuration not stated)
**Result** inactive

**Query** Also CC1=C(C=O)C(C)(C)CC=C1 ?
**Result** inactive

**Query** Same lookup for CCOC(=O)C(C)C(C)=O (configuration not stated) , please.
**Result** inactive

**Query** Now this one: [Cl][In]([Cl])[Cl]
**Result** inactive

* * *

# Test Method Notes: qHTS RealTime-Glo MT Cell Viability Assay in HepG2 cells - 40 hour (AID 1224870); note: nearly all actives have a fitted effect of over 50% in size
# Measurement Parameters: RealTime-Glo luminescence; series mostly up to 76.8 µM
Inconclusive results are not listed. The source made the active and inactive calls. Calls come from the whole dose curve; as a rule, active = well fitted cell-killing curve with a large enough effect in the repeat runs; inconclusive = weak or mixed curves, or effect the other way; inactive = flat fitted curve, though single readings scatter.
Lab note: assign the record to one of active, inactive

>>> category_label("C/C=C/c1ccc(OCC)c(O)c1")
"inactive"

**Query** # outcome recorded in this test, key = CC1COC(=O)O1 (stereo not given)
**Result** inactive

* * *

# Test Method Notes: qHTS RealTime-Glo MT Cell Viability Assay in HEK293 cells - 16 hour (AID 1224872); note: nearly all actives have a fitted effect of over 50% in size; note: potency is the fitted concentration of half-maximal effect
# Measurement Parameters: RealTime-Glo luminescence; series mostly up to 76.8 µM
Results filed as inconclusive are left out. Calls of active or inactive are those of the source. Calls follow the shape of the dose curve; as a rule, active = well fitted cell-killing curve with a large enough effect in the repeat runs; inconclusive = weak or mixed curves, or effect the other way; inactive = flat fitted curve, though single readings scatter.
Value Type: Potency

>>> result("CC(C)CCOCc1ccccc1")
"inactive"
>>> result("CC[C@]1(O)C[C@@H]2CN(CCc3c([nH]c4ccccc34)[C@@](C(=O)OC)(c3cc4c(cc3OC)N(C)[C@H]3[C@@](O)(C(=O)OC)[C@H](OC(C)=O)[C@]5(CC)C=CCN6CC[C@]43[C@@H]65)C2)C1")
"inactive"
>>> result("Cc1occc(=O)c1OC(=O)C(C)C")
"inactive"
>>> result("COc1cc(C(=S)N2CCOCC2)ccc1O")
"inactive"
>>> result("CCN(CC)C(=O)Nc1ccc(OCC(O)CNC(C)(C)C)c(C(C)=O)c1 (configuration not stated)")
"inactive"
>>> result("Nc1nc(=S)c2[nH]cnc2[nH]1")
"inactive"
>>> result("CC(=O)OCCOCCOCCOC(C)=O")
"inactive"
>>> result("c1ccc2c(c1)CCCC2C1=NCCN1 (configuration not stated)")
"inactive"
>>> result("CC(=O)CC(=O)Nc1ccc2[nH]c(=O)[nH]c2c1")
"inactive"
>>> result("CNC1(C)C2CCC(C2)C1(C)C (configuration not stated)")
"inactive"

**Query** Quick one: Potency of C=CC(=O)OCCCCCCCC ?
**Result** inactive

**Query** // query: Oc1ccc(Cl)cc1Cc1cc(Cl)ccc1O
**Result** 22.3 µM (active)

* * *

# Target Desc: Thyrotropin receptor (Homo sapiens)
# Test Method Notes: qHTS assay to identify small molecule agonists of the thyroid stimulating hormone receptor (TSHR) signaling pathway (AID 1224843); note: nearly all actives have a fitted effect of over 45% in size
# Measurement Parameters: TSHR-HEK293 cells, cAMP HTRF, agonist mode, 30 min; series mostly up to 92.4 µM
Inconclusive results are not listed. Active and inactive are the calls of the source. Calls follow the shape of the full dose curve.
Value Type: activation

Sample records with activation:
>>> result("Nc1ccc2cc3ccccc3cc2c1")
"inactive"
>>> result("COC(=O)/C=C/c1ccccc1")
"inactive"
>>> result("Clc1ccc2c(c1)C(N1CCNCC1)=Nc1ccccc1O2")
"inactive"
>>> result("CCCCCCCCCCCCCC[P+](CCCC)(CCCC)CCCC")
"inactive"
>>> result("CCCN[C@H]1CCc2nc(N)sc2C1")
"inactive"

**Query** Quick one: activation of O=C(O)c1cccc(C(=O)O)c1 ?
**Result** inactive

**Query** Also CC(C)(O)CCC(C)(C)O , if possible.
**Result** inactive

* * *

# Test Method Notes: qHTS assay to identify small molecule antagonists of the estrogen receptor alpha (ER-alpha) signaling pathway using the BG1 cell line - cell viability counter screen (AID 743081);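 note: compound given together with 17beta-estradiol as the ER stimulus; nearly all actives have a fitted effect of over 45% in size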
# Measurement Parameters: BG1Luc4E2 viability, CellTiter-Fluor, 22 h; series mostly up to 70.3 µM
Results filed as inconclusive are left out. Calls of active or inactive are those of the source. Calls come from the whole dose curve; as a rule, active = well fitted cell-killing curve with a large enough effect in the repeat runs; inconclusive = weak or mixed curves, or effect the other way; inactive = flat fitted curve, though single readings scatter.
Your answer must be one of the following: Yes for active, No for inactive

**Query** Entry C=CS(=O)(=O)O : call = ?
**Result** No

**Query** Would you mind doing C=C(C)C1CC=C(C)C(OC(C)=O)C1 (stereo unspecified) as well?
**Result** No

**Query** Try this compound too: CC[C@]1(O)C[C@@H]2CN(CCc3c([nH]c4ccccc34)[C@@](C(=O)OC)(c3cc4c(cc3OC)N(C)[C@H]3[C@@](O)(C(=O)OC)[C@H](OC(C)=O)[C@]5(CC)C=CCN6CC[C@]43[C@@H]65)C2)C1
**Result** Yes

**Query** Entry to check: C=CC(=O)OCCCCCCCC
**Result** No

**Query** Would you mind doing O=C(O)c1cn(-c2ccc(F)cc2)c2cc(N3CCNCC3)c(F)cc2c1=O as well?
**Result** No

**Query** Please do the same for COc1ccc(CCN2CCC(Nc3nc4ccccc4n3Cc3ccc(F)cc3)CC2)cc1 as well.
**Result** Yes

**Query** Also O=C(OCc1ccccc1)c1ccc(O)cc1 , if possible.
**Result** No

**Query** Ok, now O=Nc1ccc(Nc2ccccc2)cc1
**Result** No

**Query** And the next one, COC(=O)c1cccc(C(=O)OC)c1 ?
**Result** No

**Query** Another: CCC(C)(C)C(=O)O[C@H]1C[C@@H](C)C=C2C=C[C@H](C)[C@H](CC[C@@H]3C[C@@H](O)CC(=O)O3)[C@H]21
**Result** No

* * *

# Test Method Notes: A CellTox Green Cytotoxicity Assay to monitor cytotoxicity in HepG2 cells - 0 hour (AID 1224882); note: nearly all actives have a fitted effect of over 35% in size
# Measurement Parameters: CellTox Green fluorescence; series mostly up to 76.8 µM
Calls of active or inactive are those of the source. The call rests on the fitted dose curve; in most records, active means well fitted activation curve with a large enough effect in the repeat runs; inconclusive means weak or mixed curves; inactive means flat fitted curve, though single readings scatter.
Value Type: cytotoxicity

>>> result("CCCOC(=O)c1cc(O)c(O)c(O)c1")
"inactive"
>>> result("Oc1ccc(Cl)cc1Cc1cc(Cl)ccc1O")
"inactive"
>>> result("O=C(O)Cn1cnnn1")
"inactive"
>>> result("Nc1cc(Cl)c(-c2cc(Cl)c(N)cc2Cl)cc1Cl")
"inactive"
>>> result("CCOC(=O)C(C)C(C)=O (stereo not drawn)")
"inactive"

**Query** Given the compound NCCO , what is its reported cytotoxicity?
**Result** inactive

**Query** Now this one: CCCCC/C=C/CC1CC(=O)OC1=O (stereo not drawn)
**Result** inactive

**Query** Entry c1ccc2n[nH]nc2c1 please
**Result** inactive
